Assay System: GABAB receptor (Rattus norvegicus, UniProt O88871+Q9Z0U4)
Sequence (O88871 41-940): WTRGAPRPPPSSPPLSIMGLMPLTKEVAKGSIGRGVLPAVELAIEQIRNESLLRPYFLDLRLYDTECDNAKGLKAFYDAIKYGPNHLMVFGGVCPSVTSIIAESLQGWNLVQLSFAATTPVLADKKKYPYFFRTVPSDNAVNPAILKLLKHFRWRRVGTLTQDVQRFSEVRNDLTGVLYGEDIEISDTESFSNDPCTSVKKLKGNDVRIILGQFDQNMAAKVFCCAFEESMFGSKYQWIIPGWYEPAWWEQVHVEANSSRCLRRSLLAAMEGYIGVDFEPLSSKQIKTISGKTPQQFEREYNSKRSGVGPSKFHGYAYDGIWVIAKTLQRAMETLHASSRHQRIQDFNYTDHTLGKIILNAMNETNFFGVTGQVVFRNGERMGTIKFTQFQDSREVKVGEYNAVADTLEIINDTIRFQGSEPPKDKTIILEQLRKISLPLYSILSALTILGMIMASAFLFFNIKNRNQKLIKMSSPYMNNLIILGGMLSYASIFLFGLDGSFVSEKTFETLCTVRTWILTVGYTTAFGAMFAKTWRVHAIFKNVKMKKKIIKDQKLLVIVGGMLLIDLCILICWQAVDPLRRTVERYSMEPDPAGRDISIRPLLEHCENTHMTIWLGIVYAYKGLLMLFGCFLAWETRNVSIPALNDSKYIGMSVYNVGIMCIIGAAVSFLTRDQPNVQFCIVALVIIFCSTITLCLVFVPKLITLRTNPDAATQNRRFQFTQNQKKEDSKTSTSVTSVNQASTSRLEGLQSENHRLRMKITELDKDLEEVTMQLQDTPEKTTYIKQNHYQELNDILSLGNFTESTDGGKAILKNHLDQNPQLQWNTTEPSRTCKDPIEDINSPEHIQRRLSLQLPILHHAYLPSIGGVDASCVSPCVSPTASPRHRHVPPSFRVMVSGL
Sequence (Q9Z0U4 17-960 limits assumed): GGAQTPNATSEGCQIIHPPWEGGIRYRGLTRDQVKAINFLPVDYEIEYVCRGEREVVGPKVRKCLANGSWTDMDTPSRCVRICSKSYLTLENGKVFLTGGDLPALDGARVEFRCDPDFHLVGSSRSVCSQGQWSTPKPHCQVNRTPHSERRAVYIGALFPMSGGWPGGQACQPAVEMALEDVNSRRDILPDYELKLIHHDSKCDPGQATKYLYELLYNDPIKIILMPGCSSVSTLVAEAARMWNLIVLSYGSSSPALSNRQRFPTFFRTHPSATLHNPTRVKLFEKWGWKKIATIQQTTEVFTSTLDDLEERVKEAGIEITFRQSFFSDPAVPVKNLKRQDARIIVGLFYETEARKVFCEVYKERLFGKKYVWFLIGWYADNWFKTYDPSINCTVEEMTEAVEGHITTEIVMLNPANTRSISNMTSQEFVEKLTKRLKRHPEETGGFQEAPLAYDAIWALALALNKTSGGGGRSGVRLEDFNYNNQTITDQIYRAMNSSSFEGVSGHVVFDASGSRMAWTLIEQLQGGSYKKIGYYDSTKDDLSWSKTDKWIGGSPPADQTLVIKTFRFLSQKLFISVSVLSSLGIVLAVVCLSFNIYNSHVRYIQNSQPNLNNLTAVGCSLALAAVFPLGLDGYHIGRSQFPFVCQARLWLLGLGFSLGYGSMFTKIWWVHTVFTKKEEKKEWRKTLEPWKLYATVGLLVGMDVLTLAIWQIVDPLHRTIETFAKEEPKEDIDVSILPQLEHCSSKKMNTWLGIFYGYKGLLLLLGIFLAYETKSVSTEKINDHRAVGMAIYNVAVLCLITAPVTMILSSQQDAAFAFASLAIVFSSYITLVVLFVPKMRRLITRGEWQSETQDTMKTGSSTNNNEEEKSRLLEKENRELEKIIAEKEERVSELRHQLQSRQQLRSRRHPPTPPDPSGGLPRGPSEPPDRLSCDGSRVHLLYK
Protocol Text: In vitro [35S]GTPγS binding assay in rat cortical membranes
Condition Context: PAM EC50, [35S]GTPγS binding, read-out: In vitro PAM potency
pEC50: −log10 of the molar value.
Metric: pEC50

These solved cases illustrate the format of a correct answer.
[
  {
    "Compound": "Cc1cc(C2CCCOC2)n2nc([C@H]3CC[C@H](C(F)(F)F)CC3)cc2n1 (mixture of isomers) [Example 161]",
    "pEC50": "6.00 to 7.00"
  },
  {
    "Compound": "COC(=O)N1CC[C@H](C)[C@H](c2cc(C)nc3cc([C@H]4CC[C@H](C(F)(F)F)CC4)nn23)C1 (single isomer, unassigned) [Example 6]",
    "pEC50": "6.00 to 7.00"
  },
  {
    "Compound": "CC(=O)N1CCC[C@@](C)(c2cc(C)nc3cc([C@H]4CC[C@H](C(F)(F)F)CC4)nn23)C1 [Example 41]",
    "pEC50": "> 7.00"
  },
  {
    "Compound": "COC(=O)N1C[C@H](c2cc(C)nc3cc([C@H]4CC[C@H](C(F)(F)F)CC4)nn23)OC[C@@H]1C [Example 102]",
    "pEC50": "> 7.00"
  },
  {
    "Compound": "COC(=O)N1CCC[C@H](c2cc(C)nc3cc([C@H]4CC[C@H](C(F)(F)F)CC4)nn23)[C@H]1C (racemic) [Example 92]",
    "pEC50": "> 7.00"
  },
  {
    "Compound": "Cc1cc([C@@H]2CN(C(=O)CN)CC[C@H]2C)n2nc([C@H]3CC[C@H](C(F)(F)F)CC3)cc2n1 [Example 53]",
    "pEC50": "5.00 to 6.00"
  },
  {
    "Compound": "Cc1cc([C@H]2CN(C=O)[C@@H](C)CO2)n2nc([C@H]3CC[C@H](C(F)(F)F)CC3)cc2n1 [Example 103]",
    "pEC50": "6.00 to 7.00"
  },
  {
    "Compound": "CCc1c(C)nc2cc([C@H]3CC[C@H](C(F)(F)F)CC3)nn2c1[C@@H]1CN(C(C)=O)CC[C@@H]1C [Example 66]",
    "pEC50": "> 7.00"
  },
  {
    "Compound": "CC(=O)N1CCC[C@@H](c2c(C)c(C)nc3cc([C@H]4CC[C@H](C(F)(F)F)CC4)nn23)C1 [Example 33]",
    "pEC50": "6.00 to 7.00"
  },
  {
    "Compound": "Cc1cc([C@H]2CN(S(=O)(=O)N(C)C)CCO2)n2nc([C@H]3CC[C@H](C(F)(F)F)CC3)cc2n1 [Example 120]",
    "pEC50": "6.00 to 7.00"
  }
]

Looking up COC(=O)N1CCOC(C)(c2cc(C)nc3cc([C@H]4CC[C@H](C(F)(F)F)CC4)nn23)C1 (stereo partly shown) [Example 73] , I found its pEC50 recorded as 5.00 to 6.00

Lab note: measured pEC50 of Cc1cc([C@@H]2CCCN(C3CCOC3)C2)n2nc([C@H]3CC[C@H](C(F)(F)F)CC3)cc2n1 (stereo partly shown) [Example 63] was 6.00 to 7.00

pEC50 for CC(=O)N1CCC[C@](C)(c2c(C)c(C)nc3cc([C@H]4CC[C@H](C(F)(F)F)CC4)nn23)C1 [Example 37] is 6.00 to 7.00

# pEC50 of Cc1nc2cc([C@H]3CC[C@H](C(F)(F)F)CC3)nn2c(C2CN(C=O)CCO2)c1C (stereo partly shown) [Example 80] = 6.00 to 7.00

Cc1cc([C@@H]2CN(S(C)(=O)=O)CC[C@@H]2C)n2nc([C@H]3CC[C@H](C(F)(F)F)CC3)cc2n1 (racemic) [Example 85] has a reported pEC50 of 6.00 to 7.00

Quick note, pEC50 for Cc1cc([C@H]2CN(C(N)=O)CCO2)n2nc([C@H]3CC[C@H](C(F)(F)F)CC3)cc2n1 [Example 26] landed at 6.00 to 7.00

Please fill in: pEC50 reported for Cc1nc2cc([C@H]3CC[C@H](C(F)(F)F)CC3)nn2c(C2CN(C(=O)C3(C)COC3)CC(F)(F)C2)c1C (stereo partly shown) [Example 79] = 6.00 to 7.00

Looking up Cc1cc([C@@H]2CN(C(=O)N(C)C)CC[C@@H]2C)n2nc([C@H]3CC[C@H](C(F)(F)F)CC3)c(F)c2n1 (racemic) [Example 46] , I see its pEC50 listed as 6.00 to 7.00

For this compound ( CC(=O)N1CCOC(c2c(C)c(C)nc3cc([C@H]4CC[C@H](C(F)(F)F)CC4)nn23)C1 (stereo partly shown) [Example 70] ), measured pEC50 is 6.00 to 7.00

// COC(=O)N1CCC[C@H](c2cc(C)nc3cc([C@H]4CC[C@H](C(F)(F)F)CC4)nn23)[C@@H]1C [Example 97] : pEC50 value = 6.00 to 7.00

Memo: Cc1cc([C@@H]2CCCN(C=O)C2)n2nc([C@H]3CC[C@H](C(F)(F)F)CC3)cc2n1 [Example 22] , reported pEC50: 6.00 to 7.00

Quick note, pEC50 for Cc1nc2cc([C@H]3CC[C@H](C(F)(F)F)CC3)nn2c([C@@H]2CCCN(C(=O)[C@@H](N)CO)C2)c1C [Example 21] landed at 5.00 to 6.00

pEC50 for Cc1cc([C@H]2CCCOC2)n2nc([C@H]3CC[C@H](C(F)(F)F)CC3)cc2n1 (single isomer, unassigned) [Example 28] is > 7.00

GET /value?item= Cc1cc(C2CN(C)CCC2(C)C)n2nc([C@H]3CC[C@H](C(F)(F)F)CC3)cc2n1 (stereo partly shown) [Example 61] &field=pEC50 returns 6.00 to 7.00
